# Tested on: 4T1
# PROTOCOL_DESCRIPTION: % inhibition of 4T1 cell number vs DMSO control; higher = stronger growth inhibition
# TEST_SETTINGS: 1 µM; 3 days; substrate: gelatin
Where a name gives a salt, the structure may show the parent alone.
MEASURED_QUANTITY: % inhibition of 4T1 cell number (%)

{"COMPOUND": "c1cc(-c2cnn3cc(-c4ccc(OCCN5CCCCC5)cc4)cnc23)ccn1 [AMPK Inhibitor, Compound C]", "MEASURED_QUANTITY": "% inhibition of 4T1 cell number", "READING": 27.5}
{"COMPOUND": "COc1cc2ncc(-c3ccccc3)nc2cc1OC", "MEASURED_QUANTITY": "% inhibition of 4T1 cell number", "READING": 47}
{"COMPOUND": "O=C1NC(=O)/C(=C/c2ccc3c(c2)OC(F)(F)O3)S1 [PI 3-Kg Inhibitor II]", "MEASURED_QUANTITY": "% inhibition of 4T1 cell number", "READING": 11.1}
{"COMPOUND": "N#Cc1c(C2CCNCC2)cc(-c2c(O)cccc2OCC2CC2)nc1N [IKK-2 Inhibitor VIII]", "MEASURED_QUANTITY": "% inhibition of 4T1 cell number", "READING": -17.9}
{"COMPOUND": "O=C1NC(=O)c2c1c1c3ccccc3[nH]c1n1cncc21 [Isogranulatimide]", "MEASURED_QUANTITY": "% inhibition of 4T1 cell number", "READING": -25.6}
{"COMPOUND": "Cc1cc(C)c(/C=C2\\C(=O)Nc3ccccc32)[nH]1 [VEGF Receptor 2 Kinase Inhibitor III]", "MEASURED_QUANTITY": "% inhibition of 4T1 cell number", "READING": 30.2}
{"COMPOUND": "N#C/C(=C(/N)Sc1ccccc1N)c1cccc(C(O)c2ccncc2)c1 (stereo unspecified) [MEK Inhibitor I]", "MEASURED_QUANTITY": "% inhibition of 4T1 cell number", "READING": 30.7}
{"COMPOUND": "Nc1n[nH]c(N)c1N=Nc1ccc(O)cc1 [Cdk9 Inhibitor II]", "MEASURED_QUANTITY": "% inhibition of 4T1 cell number", "READING": 10.5}
{"COMPOUND": "O=C(Nc1ccncc1)Nc1c(Cl)cc(Cl)cc1Cl [Rho Kinase Inhibitor II]", "MEASURED_QUANTITY": "% inhibition of 4T1 cell number", "READING": -2.18}
{"COMPOUND": "O=S(=O)(NCCNC/C=C/c1ccc(Br)cc1)c1cccc2cnccc12 [H-89, Dihydrochloride]", "MEASURED_QUANTITY": "% inhibition of 4T1 cell number", "READING": 25.6}
{"COMPOUND": "O=C(c1ccc(Nc2nccc(-c3cc4ccccc4s3)n2)cc1)N1CCC(N2CCCC2)CC1 [IKK Inhibitor VII]", "MEASURED_QUANTITY": "% inhibition of 4T1 cell number", "READING": 55.4}
{"COMPOUND": "Oc1cccc(-c2nc(N3CCOCC3)c3oc4ncccc4c3n2)c1", "MEASURED_QUANTITY": "% inhibition of 4T1 cell number", "READING": 4.53}
{"COMPOUND": "O=C1Cc2c([nH]c3ccc([N+](=O)[O-])cc23)-c2ccccc2N1 [Alsterpaullone]", "MEASURED_QUANTITY": "% inhibition of 4T1 cell number", "READING": 45.2}
{"COMPOUND": "COc1ccc(COc2ccc(Cc3cnc(N)nc3N)cc2OC)cc1 [cFMS Receptor Tyrosine Kinase Inhibitor]", "MEASURED_QUANTITY": "% inhibition of 4T1 cell number", "READING": -87.3}
{"COMPOUND": "O=C1NC(=O)C(c2c[nH]c3ccccc23)=C1c1c[nH]c2ccccc12 [Bisindolylmaleimide IV]", "MEASURED_QUANTITY": "% inhibition of 4T1 cell number", "READING": -65.7}
{"COMPOUND": "Cn1nc2c3c(cccc31)C(=O)c1ccccc1-2 [JNK Inhibitor, Negative Control]", "MEASURED_QUANTITY": "% inhibition of 4T1 cell number", "READING": -36.9}
{"COMPOUND": "CC(=O)O/N=C1/C(c2c(O)[nH]c3cc(Br)ccc23)=Nc2ccccc21 [GSK-3 Inhibitor X]", "MEASURED_QUANTITY": "% inhibition of 4T1 cell number", "READING": 52.7}
{"COMPOUND": "Cn1c2ccccc2c2c3c(c4c5ccccc5n(CCC#N)c4c21)CNC3=O", "MEASURED_QUANTITY": "% inhibition of 4T1 cell number", "READING": 67.2}
{"COMPOUND": "CC[C@H](CO)Nc1nc(NCc2ccccc2O)c2ncn(C(C)C)c2n1 [Olomoucine II]", "MEASURED_QUANTITY": "% inhibition of 4T1 cell number", "READING": 23.4}
{"COMPOUND": "O=C(O)c1ccc2c3c1cccc3c(=O)n1c3ccccc3nc21", "MEASURED_QUANTITY": "% inhibition of 4T1 cell number", "READING": 44.3}
{"COMPOUND": "Nc1ccc(-c2cccc3c(=O)cc(N4CCOCC4)oc23)cc1", "MEASURED_QUANTITY": "% inhibition of 4T1 cell number", "READING": -16.5}
{"COMPOUND": "Cc1ncc2ccccc2c1C#N [4-Cyano-3-methylisoquinoline]", "MEASURED_QUANTITY": "% inhibition of 4T1 cell number", "READING": 52.6}
{"COMPOUND": "Nc1nc(Nc2ccc(S(N)(=O)=O)cc2)nn1C(=S)Nc1c(F)cccc1F [Cdk1/2 Inhibitor III]", "MEASURED_QUANTITY": "% inhibition of 4T1 cell number", "READING": 90}
{"COMPOUND": "O=C(Nc1cc(Cl)cc2c1[nH]c1cnccc12)c1cccnc1 [IKK Inhibitor X]", "MEASURED_QUANTITY": "% inhibition of 4T1 cell number", "READING": 25.8}
{"COMPOUND": "COc1cc(Nc2ncc3ccn(-c4cccc(CCC#N)c4)c3n2)cc(OC)c1OC [Keratinocyte Differentiation Inducer]", "MEASURED_QUANTITY": "% inhibition of 4T1 cell number", "READING": 89}
{"COMPOUND": "Cc1nc2cc3nc(-c4cccs4)cnc3cc2n1C", "MEASURED_QUANTITY": "% inhibition of 4T1 cell number", "READING": -31.4}
{"COMPOUND": "O=C1Cc2c([nH]c3ccc(Br)cc23)-c2ccccc2N1 [Kenpaullone]", "MEASURED_QUANTITY": "% inhibition of 4T1 cell number", "READING": -0.528}
{"COMPOUND": "NC(N)=NCCNS(=O)(=O)c1cccc2cnccc12 [HA 1004, Dihydrochloride]", "MEASURED_QUANTITY": "% inhibition of 4T1 cell number", "READING": -0.694}
{"COMPOUND": "Cc1ccc(NC2=CC(=O)c3sc(C)nc3C2=O)cc1 [Cdk4 Inhibitor III]", "MEASURED_QUANTITY": "% inhibition of 4T1 cell number", "READING": 30.5}
{"COMPOUND": "O=c1cc(N2CCNCC2)oc2c(-c3ccccc3)cccc12", "MEASURED_QUANTITY": "% inhibition of 4T1 cell number", "READING": -6.29}
{"COMPOUND": "COc1ccc(-c2cnc3c(-c4ccsc4)cnn3c2)cc1 [VEGF Receptor 2 Kinase Inhibitor IV]", "MEASURED_QUANTITY": "% inhibition of 4T1 cell number", "READING": 30.6}
{"COMPOUND": "O=c1cc(N2CCOCC2)oc2c1ccc1ccccc12 [DNA-PK Inhibitor II]", "MEASURED_QUANTITY": "% inhibition of 4T1 cell number", "READING": -23.4}
{"COMPOUND": "O=S(=O)(c1cccc2cnccc12)N1CCCNCC1 [HA 1077, Dihydrochloride]", "MEASURED_QUANTITY": "% inhibition of 4T1 cell number", "READING": 21.7}
{"COMPOUND": "O=C1NCCc2[nH]c(-c3ccnc(-c4cnc5ccccc5c4)c3)cc21 [MK-2 Inhibitor III]", "MEASURED_QUANTITY": "% inhibition of 4T1 cell number", "READING": -5.86}
{"COMPOUND": "CC(=O)c1ccc(N2CCOCC2)cc1O [DNA-PK Inhibitor III]", "MEASURED_QUANTITY": "% inhibition of 4T1 cell number", "READING": -13.7}
{"COMPOUND": "Cc1cc2ncc(-c3ccccc3)nc2cc1C", "MEASURED_QUANTITY": "% inhibition of 4T1 cell number", "READING": 65.9}

Every entry's value here was drawn from the supplement of paper PMC8269313.
